- measurement-target: mitochondrial uncoupling protein 2 (UCP2) (Mus musculus, UniProt P70406)
- Construct: recombinant mouse UCP2 from E. coli inclusion bodies, reconstituted in lipid bilayers
- Sequence (P70406 whole entry): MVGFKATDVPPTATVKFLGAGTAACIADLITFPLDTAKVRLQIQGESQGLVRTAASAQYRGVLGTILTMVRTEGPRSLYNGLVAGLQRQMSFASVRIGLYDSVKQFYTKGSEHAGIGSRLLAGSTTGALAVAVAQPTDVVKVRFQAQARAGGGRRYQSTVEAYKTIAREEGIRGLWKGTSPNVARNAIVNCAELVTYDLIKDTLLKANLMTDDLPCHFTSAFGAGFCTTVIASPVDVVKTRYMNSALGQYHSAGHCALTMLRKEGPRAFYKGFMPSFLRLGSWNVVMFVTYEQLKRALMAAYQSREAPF
- test-method-notes: planar lipid bilayer conductance with reconstituted UCP2
measurement-kind: IC50 (µM)
Please respond with the number in µM and leave the unit unwritten.

Dear colleague, I am looking for the recorded IC50 of the following compound: "COC(=O)C1=CO[C@@H](O)[C@@H]2C(CO)=CC[C@H]12"
94
